Reported TGI values follow for various compounds
System: HOP-62 NSCLC
test_details: NCI tumour cell line growth inhibition, 48 h
quantity_measured: TGI

>>> print(df.to_string())
                                    compound  target_or_system  result_value
 0         Cc1cc2occ(C)c(=O)c2c2c1OC(C)(C)S2      HOP-62 NSCLC      > 100 µM
 1  O=c1[nH]cnc2c1ncn2[C@H]1CO[C@@H](CO)[C@@H]1O      HOP-62 NSCLC      > 100 µM
 2  Cc1ccc(N2C(=O)C(Cl)=C(Nc3cccc(O)c3)C2=O)cc1Cl      HOP-62 NSCLC       36.3 µM
 3  O=C1CSC2(CCN(CCCN3c4ccccc4Sc4ccc(Cl)cc43)CC2)N1      HOP-62 NSCLC       25.5 µM
 4  C=C[C@H]1CN2CC[C@H]1C[C@@H]2[C@@H](O)c1ccnc2ccccc12      HOP-62 NSCLC      > 100 µM
 5  Cn1nnnc1[N-]Cc1ccccc1.[Au+].c1ccc([PH+](c2ccccc2)c2ccccc2)cc1      HOP-62 NSCLC         30 µM
 6       O=C(Nc1ccc(Br)cc1)c1cc(Br)cc(Br)c1O      HOP-62 NSCLC        6.5 µM
 7  CN(C)Cc1cc(C(=O)/C=C/c2ccc(/C=C/C(=O)c3cc(CN(C)C)c(O)c(CN(C)C)c3)cc2)cc(CN(C)C)c1O      HOP-62 NSCLC      > 100 µM
 8  COc1cccc(C2c3cc4c(cc3OC(N3CCOCC3)C2C)OCO4)c1O (stereo not drawn)      HOP-62 NSCLC         26 µM
 9  Cc1ccc(-c2cc3nc(-c4ccccc4)nc(C(Cl)Cl)n3n2)cc1      HOP-62 NSCLC       2.11 µM
10  CC1(C)C2CCC1C(=O)C(C=O)C2 (stereo not drawn)      HOP-62 NSCLC      > 100 µM
11         Brc1ccc2c(c1)C1=C(CO2)Cc2ccccc2O1      HOP-62 NSCLC       30.3 µM
12  CC1(C)OC2C(=O)OC(COCc3ccccc3)C2O1 (stereo not drawn)      HOP-62 NSCLC      > 100 µM
13  COc1cc2c(cc1OCCCC(=O)Nc1cc(C(=O)Nc3cc(C(=O)NCCCN(C)C)n(C)n3)n(C)n1)N=CC1CCCN1C2=O (stereo not drawn)      HOP-62 NSCLC       68.7 µM
14  c1ccc2c(NCCCCCCCCNc3c4ccccc4nc4ccccc34)c3ccccc3nc2c1      HOP-62 NSCLC       2.24 µM
15  CCOC(OC1=C(C#N)CCC1)C(CC)[Se]c1ccccc1 (stereo not drawn)      HOP-62 NSCLC      > 100 µM
16        CC1=C(C#N)S(=O)(=O)c2c(oc(C)c2C)N1      HOP-62 NSCLC      > 100 µM
17  Cc1ccc(-n2c(C)nc3c2C(=O)c2ccccc2C3=O)cc1      HOP-62 NSCLC      > 100 µM
18      Cn1c2ccccc2n2c3nc4ccccc4nc3c(C#N)c12      HOP-62 NSCLC      > 100 µM
19         CCCCCCCCOCC1S(=O)(=O)OCCOS1(=O)=O      HOP-62 NSCLC      > 100 µM
20  COc1cc(C2c3cc4c(cc3OC(N3CCOCC3)C2C)OCO4)cc(OC)c1O (stereo not drawn)      HOP-62 NSCLC       35.5 µM
21  CCOC(=O)/C=C(/CN1C(=O)c2ccccc2C1=O)c1ccccc1      HOP-62 NSCLC      > 100 µM
22     Cc1nc2c(Br)cc(Br)cc2c(=O)n1-c1ccccc1N      HOP-62 NSCLC      > 100 µM
23  CC(=O)O[C@H]1/C(=C/c2ccc(N(C)C)cc2)C[C@H]2[C@@H]3CC=C4C[C@@H](N5CCCC5)CC[C@]4(C)[C@H]3CC[C@]12C      HOP-62 NSCLC      > 100 µM
24  Nc1nc(N)c2ncn(CC(CO)CC(c3ccccc3)P(=O)(O)O)c2n1 (stereo not drawn)      HOP-62 NSCLC      > 100 µM
25    Clc1ccc(-c2nc(-c3ccc(Cl)cc3)[s+]s2)cc1      HOP-62 NSCLC      > 100 µM
26  COc1ccc2c(c1)CC[C@@H]1[C@@H]2CC[C@]2(C)/C(=N/OCCN3CCCCC3)CC[C@@H]12      HOP-62 NSCLC         21 µM
27  CC(=O)Nc1ccc(Nc2nc(=O)[nH]c(=O)[nH]2)cc1      HOP-62 NSCLC      > 100 µM
28  CC(Nc1cc(Cl)cc(Cl)c1)c1ccncc1 (stereo not drawn)      HOP-62 NSCLC       33.5 µM
29  COc1ccc(/C=[N+](\[O-])[C@H](COCc2ccccc2)c2ccccc2)cc1      HOP-62 NSCLC      > 100 µM
30  C=CCN(N=O)C(=O)N(CCC)CCCC(NC(C)=O)C(=O)NCc1ccccc1 (stereo not drawn)      HOP-62 NSCLC      > 100 µM
31       COC(=O)/C=C1/OC(c2ccccc2)=C(Cl)C1=O      HOP-62 NSCLC       > 58 µM
32  CC[C@@]1(OC(=O)CCC(=O)O)C(=O)OCc2c1cc1n(c2=O)Cc2cc3ccccc3nc2-1      HOP-62 NSCLC      0.181 µM
